# system.name: Serine/threonine-protein kinase 33 (Homo sapiens) (UniProt Q9BYT3)
# Sequence (Q9BYT3 whole entry, looked up): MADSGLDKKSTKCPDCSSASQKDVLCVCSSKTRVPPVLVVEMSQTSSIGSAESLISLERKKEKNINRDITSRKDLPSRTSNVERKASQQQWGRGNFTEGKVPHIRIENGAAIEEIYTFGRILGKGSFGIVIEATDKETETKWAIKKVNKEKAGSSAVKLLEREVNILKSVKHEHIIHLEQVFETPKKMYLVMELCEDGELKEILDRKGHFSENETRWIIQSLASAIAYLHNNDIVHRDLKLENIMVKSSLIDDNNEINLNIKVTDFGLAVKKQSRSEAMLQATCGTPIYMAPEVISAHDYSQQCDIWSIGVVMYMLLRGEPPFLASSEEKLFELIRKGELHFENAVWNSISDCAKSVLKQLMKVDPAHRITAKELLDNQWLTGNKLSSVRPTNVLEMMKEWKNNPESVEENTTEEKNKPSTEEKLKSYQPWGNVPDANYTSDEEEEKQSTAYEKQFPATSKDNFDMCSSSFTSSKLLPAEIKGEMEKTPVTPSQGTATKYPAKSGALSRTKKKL
# assay.text: STK33 kinase inhibitors, dose response, biochemical, luminescence, cell-free, retest (AID 2821)
# condition.parameters: purified STK33, MBP substrate, ADP-Glo luminescence
Activity calls are given as the source filed them.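 How the source made its calls: active means IC50 no more than a set number of log units above the top dose tested; inconclusive means flat fit with 30 to 70% inhibition, or a poor fit; inactive means IC50 beyond that set limit.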
metric.name: IC50

>>> df
                                   molecule  metric_name          meas_value
0      COc1ccc(N=Cc2c(O)[nH]c3ccccc23)cc1OC         IC50             5.22 µM
1             O=C1C(c2ccncc2)=C(O)c2ccccc21         IC50             10.3 µM
2       O=c1c(/C=N/O)c(Nc2ccccc2)nc2ccccn12         IC50             6.22 µM
3  NS(=O)(=O)c1ccc2c(c1)C(=NO)c1cc(S(N)(=O)=O)ccc1-2         IC50             4.91 µM
4  COc1cc(/C=C/C(=O)/C=C(O)/C=C/c2ccc(O)c(OC)c2)ccc1O         IC50             0.71 µM
5       Oc1[nH]c2ccccc2c1C=Nc1ccc2c(c1)OCO2         IC50             11.3 µM
6          COC(=O)c1cccc2c1-c1ccccc1/C2=N/O         IC50             11.8 µM
7  COc1cc(C2c3sc(=O)[nH]c3SC3C(=O)N(c4ccc(C)cc4)C(=O)C32)ccc1O (stereo not given)         IC50  > 12 µM (inactive)
8  COc1cc(/C=C/C(O)=C/C(=O)/C=C/c2ccc(O)cc2)ccc1O         IC50             1.75 µM
9  CCn1c2ccc(/C(C)=N\O)cc2c2cc(/C(C)=N\O)ccc21         IC50  > 12 µM (inactive)

Challenge: What value of IC50 has been recorded for this entry: `N#C/C(=C(/O)c1ccco1)c1nc2ccccc2[nH]1`
Response given: 8.49 µM

Challenge: What value of IC50 has been recorded for this entry: `Oc1ccc(/C=C/c2ccnc3ccccc23)cc1`
Response given: 11.5 µM

Challenge: What value of IC50 has been recorded for this entry: `CCCn1c2ccc(/C(C)=N\O)cc2c2cc(/C(C)=N/O)ccc21`
Response given: 2.48 µM

Challenge: What value of IC50 has been recorded for this entry: `COc1cc(N=Cc2c(O)[nH]c3ccccc23)cc(OC)c1OC`
Response given: 4.93 µM

Challenge: What value of IC50 has been recorded for this entry: `Oc1ccc(/C=N/Nc2ccnc3cc(Cl)ccc23)cc1O`
Response given: 3.05 µM
